Source listed as patent US7759345B2.

Below, each of the compounds is paired with its reported HMEC-1 TGI value.
# System: HMEC1
# procedureText: Inhibition of cells growth by colorimetric assay (SRB), HMEC1
# Assay type: cell-based
# condition: SRB assay, 48 hours exposure

{"compound": "COc1cc2c(cc1OC(=O)OC(C)(C)C)CCN[C@]21CS[C@@H]2c3c(OC(=O)[C@H](C)NC(=O)OC(C)(C)C)c(C)c4c(c3[C@H](COC1=O)N1C2[C@H]2c3c(cc(C)c(OC)c3O)C[C@@H]([C@@H]1O)N2C)OCO4 (stereo partly drawn) [Compound 175]", "HMEC-1 TGI": "1.29E-08"}
{"compound": "COc1cc2c(cc1O)CCN[C@]21CS[C@@H]2c3c(OC(=O)CCCCC4SCC5NC(=O)NC54)c(C)c4c(c3[C@H](COC1=O)N1C2[C@H]2c3c(cc(C)c(OC)c3OC(=O)CCCCC3SCC5NC(=O)NC53)C[C@@H]([C@@H]1O)N2C)OCO4 (stereo partly drawn) [Compound 172]", "HMEC-1 TGI": "8.53E-06"}
{"compound": "C=COC(=O)Oc1c(C)c2c(c3c1[C@H]1SC[C@]4(NCCc5cc(OC(=O)OC(C)(C)C)c(OC)cc54)C(=O)OC[C@@H]3N3C1[C@H]1c4c(cc(C)c(OC)c4O)C[C@@H]([C@@H]3O)N1C)OCO2 (stereo partly drawn) [Compound 176]", "HMEC-1 TGI": "1.48E-07"}
{"compound": "COc1cc2c(cc1O)CCN[C@]21CS[C@@H]2c3c(OC(=O)CCCCC4SCC5NC(=O)NC54)c(C)c4c(c3[C@H](COC1=O)N1C2[C@H]2c3c(cc(C)c(OC)c3O)C[C@@H]([C@@H]1O)N2C)OCO4 (stereo partly drawn) [Compound 171]", "HMEC-1 TGI": "6.90E-09"}
{"compound": "COc1cc2c(cc1O)CCN[C@]21CS[C@@H]2c3c(OC(=O)C(F)(F)C(F)(F)C(F)(F)F)c(C)c4c(c3[C@H](COC1=O)N1C2[C@H]2c3c(cc(C)c(OC)c3O)C[C@@H]([C@@H]1O)N2C)OCO4 (stereo partly drawn) [Compound 167]", "HMEC-1 TGI": "3.49E-07"}
{"compound": "COc1cc2c(cc1O)CCN[C@]21CS[C@@H]2c3c(O)c(C)c4c(c3[C@H](COC1=O)N1C2[C@H]2c3c(cc(C)c(OC)c3O)C[C@@H]([C@@H]1O)N2C)OCO4 (stereo partly drawn) [Et-701]", "HMEC-1 TGI": "1.35E-08"}

====

Below, each of the compounds is paired with its reported Toxicity Data Liver value.
# Test system: Liver

{"compound": "COc1cc2c(cc1O)CCN[C@]21CS[C@@H]2c3c(OC(=O)CCCCC4SCC5NC(=O)NC54)c(C)c4c(c3[C@H](COC1=O)N1C2[C@H]2c3c(cc(C)c(OC)c3O)C[C@@H]([C@@H]1O)N2C)OCO4 (stereo partly drawn)", "Toxicity Data Liver": "8.37E-08"}
{"compound": "COc1cc2c(cc1OC(=O)OC(C)(C)C)CCN[C@]21CS[C@@H]2c3c(OC(=O)[C@H](C)NC(=O)OC(C)(C)C)c(C)c4c(c3[C@H](COC1=O)N1C2[C@H]2c3c(cc(C)c(OC)c3O)C[C@@H]([C@@H]1O)N2C)OCO4 (stereo partly drawn)", "Toxicity Data Liver": "3.87E-09"}
{"compound": "C=CCOC(=O)Oc1cc2c(cc1OC)[C@@]1(CS[C@@H]3c4c(OC(C)=O)c(C)c5c(c4[C@H](COC1=O)N1C3[C@H]3c4c(cc(C)c(OC)c4O)C[C@@H]([C@@H]1O)N3C)OCO5)NCC2 (stereo partly drawn)", "Toxicity Data Liver": "2.57E-08"}
{"compound": "C=COC(=O)Oc1cc2c(cc1OC)[C@@]1(CS[C@@H]3c4c(OC(C)=O)c(C)c5c(c4[C@H](COC1=O)N1C3[C@H]3c4c(cc(C)c(OC)c4OC(=O)OC=C)C[C@@H]([C@@H]1O)N3C)OCO5)N(C(=O)OC=C)CC2 (stereo partly drawn)", "Toxicity Data Liver": "4.80E-08"}
{"compound": "COc1cc2c(cc1OC(=O)Cc1cc(=O)oc3cc(N(C)C)ccc13)CCN[C@]21CS[C@@H]2c3c(OC(C)=O)c(C)c4c(c3[C@H](COC1=O)N1C2[C@H]2c3c(cc(C)c(OC)c3OC(=O)Cc3cc(=O)oc5cc(N(C)C)ccc35)C[C@@H]([C@@H]1O)N2C)OCO4 (stereo partly drawn) [Compound 77]", "Toxicity Data Liver": "9.53E-09"}
{"compound": "COc1cc2c(cc1O)CCN(C)[C@]21CS[C@@H]2c3c(OC(C)=O)c(C)c4c(c3[C@H](COC1=O)N1C2[C@H]2c3c(cc(C)c(OC)c3O)C[C@@H]([C@@H]1O)N2C)OCO4 (stereo partly drawn)", "Toxicity Data Liver": "1.13E-08"}
{"compound": "COc1cc2c(cc1OC(=O)C(F)(F)F)CCN[C@]21CS[C@@H]2c3c(OC(C)=O)c(C)c4c(c3[C@H](COC1=O)N1C2[C@H]2c3c(cc(C)c(OC)c3O)C[C@@H]([C@@H]1O)N2C)OCO4 (stereo partly drawn)", "Toxicity Data Liver": "4.16E-09"}
{"compound": "C=CCOc1cc2c(cc1OC)[C@@]1(CS[C@@H]3c4c(OC(C)=O)c(C)c5c(c4[C@H](COC1=O)N1C3[C@H]3c4c(cc(C)c(OC)c4O)C[C@@H]([C@@H]1O)N3C)OCO5)NCC2 (stereo partly drawn)", "Toxicity Data Liver": "3.16E-08"}
{"compound": "COc1cc2c(cc1O)CCN(C)[C@]21CS[C@@H]2c3c(OC(C)=O)c(C)c4c(c3[C@H](COC1=O)N1C2[C@@H]2N[C@@H](Cc3cc(C)c(OC)c(O)c32)[C@@H]1O)OCO4 (stereo partly drawn)", "Toxicity Data Liver": "1.07E-09"}
